# SYSTEM UNDER TEST: PD-L1 (Homo sapiens)
# Construct: hPDL1(19-239)-TVMV-His; made in house; host or cells: HEK293T
# Sequence (Q9NZQ7 with tags, fused parts or gaps): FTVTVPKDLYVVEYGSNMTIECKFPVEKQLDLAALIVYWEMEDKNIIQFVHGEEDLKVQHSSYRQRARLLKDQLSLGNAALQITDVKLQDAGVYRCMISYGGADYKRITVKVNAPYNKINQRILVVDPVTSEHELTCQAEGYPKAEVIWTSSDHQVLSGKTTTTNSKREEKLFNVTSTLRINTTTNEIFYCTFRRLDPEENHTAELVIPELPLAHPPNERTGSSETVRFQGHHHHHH
# ASSAY REMARKS: PD-1/PD-L1 Homogenous Time-Resolved Fluorescence (HTRF) binding assay (PD-1-Ig/PD-L1-His)
# TEST PARAMETERS: inhibition of PD-1-Ig binding to PD-L1-TVMV-His; value given as range class; read-out: HTRF IC50
TEST READOUT: IC50

{"MOLECULE": "CCCCCCCCCCCCCCCCNC(=O)CCCCCCCCCCNC(=O)[C@@H]1CSCC(=O)N[C@@H](Cc2ccc(O)cc2)C(=O)N(C)[C@@H](C)C(=O)N[C@@H](CC(N)=O)C(=O)N2CCC[C@H]2C(=O)N[C@@H](Cc2cnc[nH]2)C(=O)N[C@@H](CC(C)C)C(=O)N2C[C@H](O)C[C@H]2C(=O)N[C@@H](Cc2c[nH]c3ccccc23)C(=O)N[C@@H](CO)C(=O)N[C@@H](Cc2c[nH]c3ccccc23)C(=O)N(C)[C@@H](CCCC)C(=O)N(C)[C@@H](CCCC)C(=O)N[C@@H](CCCNC(=N)N)C(=O)N1 [Example 11115]", "IC50": "100 to 1600 nM"}

Next up:
Asked: I am curious: what IC50 value has been reported for CCCC[C@H]1C(=O)N(C)[C@@H](CCCC)C(=O)N[C@@H](CC(C)C)C(=O)N[C@H](C(=O)N[C@@H](Cc2cn(CCC(NC(=O)CCCCCCCCCCCCCCCCC(=O)O)C(=O)O)nn2)C(=O)O)CSCC(=O)N[C@@H](Cc2ccc(O)cc2)C(=O)N(C)[C@@H](C)C(=O)N[C@@H](CC(N)=O)C(=O)N2CCC[C@H]2C(=O)N[C@@H](CN)C(=O)N[C@@H](CC(C)C)C(=O)N2C[C@H](O)C[C@H]2C(=O)N[C@@H](Cc2c[nH]c3ccccc23)C(=O)N[C@@H](CCN)C(=O)N[C@@H](Cc2cn(CC(=O)O)c3ccccc23)C(=O)N1C (some centres unmarked) [Example 13129] ?
Given back: 10 to 99 nM

meta.source: patent US10633419B2
